Test system: P388
test_name: Anticancer activity carried out in vitro against murine leukemia P388
Format: functional, cell-based
details: Mus musculus
readout_kind: pIC50
Just so you know, pIC50 here is -log10 of the concentration in molar units; reply with that number alone.

Use these answered entries as a reference point.
COC1=C(OCc2ccc([N+](=O)[O-])cc2)C(=O)O/C1=C/Cn1cnc2c(Cl)ncnc21; 5.13
COC1=C(OC)/C(=C/Cn2cnc3c(N)ncnc32)OC1=O; 5.57
COC1=C(OC)/C(=C/Cn2cnc3c(Cl)ncnc32)OC1=O; 5.09

Just so you know, measured pIC50 for "Nc1ccn([C@@H]2O[C@H](CO)[C@@H](O)[C@@H]2O)c(=O)n1" came out at 6.85

Just so you know, measured pIC50 for COC1=C(OC)/C(=C/C(n2cnc3c(Cl)ncnc32)P(=O)(OC)OC)OC1=O (centres undefined) came out at 4.84

Just so you know, measured pIC50 for "COC1=C(OCc2ccc([N+](=O)[O-])cc2)/C(=C\Cn2cnc3c(Cl)ncnc32)OC1=O" came out at 5.19
